- assayedSystem: T1, GRIP1_5, Q9Y3R0
- T1 sequence (Q9Y3R0 568-668, limits assumed, looked up): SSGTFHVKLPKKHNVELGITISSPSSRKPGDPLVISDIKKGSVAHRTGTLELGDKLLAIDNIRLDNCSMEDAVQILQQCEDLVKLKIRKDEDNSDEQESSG
- protocolDetails: holdup assay
- Design: key: below the threshold = too weak to quantify, mostly under pKd 3.1 to 4
- testParameters: plain residues with an end cap or a label only (N-terminal biotin on a linker: ttds)
measurementKind: pKd

Consider the following illustrative entries.
| binder | pKd |
| --- | --- |
| DPRNTQTSQI [ABRAXAS2, Q15018] | 3.66 |
| VNKVWDQSSV [CIT, O14578] | below the threshold |
| SEKHFRETEV [HTLV1-TAX1, P03409] | below the threshold |
| RTRQRNETQV [HPV51-E6, P26554] | below the threshold |

// below: pKd requested for another binder
Sample LCALPKVTTV [AGMAT, Q9BSE5] — what was its pKd?
below the threshold
